Origin of values: patent US8258119B2

Could you please report measured reduction in normal cell viability for the items listed next?
# System: normal human skin epithelial HS.531.sk cells
# Assay explanation: LDH leakage assay on normal skin cells (tumor selectivity)
# Assay type: cell-based
# Conditions: 120 μg/ml
One number for each entry, in %.

Example cases with answers are listed next.
INSERT INTO assay_data (compound, quantitative_readout) VALUES
  ('COc1c(C(N)=O)sc(C(N)=O)c1/N=N/N(C)C', 2.4),
  ('CN(C)/N=N/c1cc([N+](=O)[O-])sc1C(N)=O', 2.4),
  ('CN(C)/N=N/c1[nH]cnc1C(N)=O [DTIC, reference compound]', 5.8);

Consider now this further compound.
Q: I'm curious: which reduction in normal cell viability was measured for CN(C)/N=N/c1ccsc1C(N)=O tested on normal human skin epithelial HS.531.sk cells?
A: 4.2
